Entries annotated with measured AUC(0-t)
assay: Single dose oral pharmacokinetic study; type: in vivo; conditions: mouse; Mice oral PK @30 mg/kg; plasma; vehicle 10% Solutol+20% PEG; read-out: AUC0-t
READOUT NAME: AUC(0-t)

INSERT INTO assay_data (compound_smiles, readout_name, result) VALUES
  ('Cc1occc1C(=O)NC(C)(C)C(=O)N[C@@]12CC[C@]3(C)[C@H](CC[C@@H]4[C@@]5(C)CC[C@H](OC(=O)[C@H]6C[C@@H](C(=O)O)C6(C)C)C(C)(C)[C@@H]5CC[C@]43C)C1=C(C(C)C)C(=O)C2', 'AUC(0-t)', '477 µg·h/mL'),
  ('CC(C)C1=C2[C@H]3CC[C@@H]4[C@@]5(C)CC[C@H](OC(=O)[C@H]6C[C@@H](C(=O)O)C6(C)C)C(C)(C)[C@@H]5CC[C@@]4(C)[C@]3(C)CC[C@@]2(NC(=O)C2(NC(=O)c3cccnc3N3CCOCC3)CCC2)CC1=O', 'AUC(0-t)', '214 µg·h/mL'),
  ('CC(C)C1=C2[C@H]3CC[C@@H]4[C@@]5(C)CC[C@H](OC(=O)[C@H]6C[C@@H](C(=O)O)C6(C)C)C(C)(C)[C@@H]5CC[C@@]4(C)[C@]3(C)CC[C@@]2(NC(=O)C(C)(C)NC(=O)c2ccc3ccccc3n2)CC1=O', 'AUC(0-t)', '345 µg·h/mL'),
  ('CC(C)C1=C2[C@H]3CC[C@@H]4[C@@]5(C)CC[C@H](OC(=O)[C@H]6C[C@@H](C(=O)O)C6(C)C)C(C)(C)[C@@H]5CC[C@@]4(C)[C@]3(C)CC[C@@]2(NC(=O)C(C)(C)NC(=O)c2ccc(Cl)cn2)CC1=O', 'AUC(0-t)', '881 µg·h/mL');
